- Tested on: OVCAR-5 ovarian
- PROTOCOL DETAILS: NCI tumour cell line growth inhibition, 48 h; in the data active = GI50 below about 0.43 µM; inactive = the rest
// allowed return values: yes (active), no (inactive)

                                   molecule  classification
0        O=c1cc(-c2ccc(Cl)cc2)[nH]c2ccccc12              no
1  C=CC(=O)N[C@@H]1CN(c2nc(Nc3cn(C)nc3OC)c3ncn(C)c3n2)C[C@H]1F              no
2  C[C@@H](O)[C@@H](C)Oc1nc(Nc2ccc(S(=N)(=O)C3CC3)cc2)ncc1C(F)(F)F (stereo partly specified)             yes
3  Cc1cc(F)c(C(=O)Nc2cccc(-c3nncn3C(C)C)n2)cc1-n1cnc(C2CC2)c1              no
4  CCOC(=O)/C(=C/CC/C(C)=C/CC/C(C)=C/CCc1ccoc1)CC(=O)N1CCCCC1              no

Could you kindly confirm the outcome this assay logged for CN(C)c1ccc(C(=S)c2ccc(N(C)C)cc2)cc1 ?
no

Could you kindly confirm the outcome this assay logged for O=C1c2c(O)cccc2C(C(=O)CCCCCC(=O)C2c3cccc(O)c3C(=O)c3c(O)cccc32)c2cccc(O)c21 ?
no
